Values from ChEMBL document CHEMBL3758168

Can you tell me MIC for the items I'm about to list?
tested on: Mycobacterium tuberculosis; assay: Antibacterial activity against Mycobacterium tuberculosis H37Rv ATCC 27294T assessed as ofloxacin MIC at 4 ug/ml after 7 days by microdilution checkerboard assay; assay type: functional; conditions: 168 h
Please give a number only; it is taken to be in µg/mL.

Qu. Please look up its MIC: CCCSc1nnc(COc2ccccc2C2=NOC(c3ccc(Cl)cc3Cl)C2)n1NC(=O)CCl (stereo unspecified)
Ans. 2

Qu. Also CSc1ccc2c(c1)N(CCC1CCCCN1C)c1ccccc1S2 (stereo unspecified) [THIORIDAZINE] ?
Ans. 1

Qu. Also COc1ccc(CCN(C)CCCC(C#N)(c2ccc(OC)c(OC)c2)C(C)C)cc1OC (stereo unspecified) ?
Ans. 2

Qu. Also CCCSc1nnc(COc2ccccc2C2=NOC(c3ccc(Cl)cc3Cl)C2)n1NC(=O)c1ccccc1 (stereo unspecified) ?
Ans. 2

Qu. Also CCCSc1nnc(COc2ccccc2C2=NOC(c3ccc(Cl)cc3Cl)C2)n1NC(C)=O (stereo unspecified) ?
Ans. 0.0156

Qu. Also CCSc1nnc(COc2ccccc2C2=NOC(c3ccc(Cl)cc3Cl)C2)n1NC(C)=O (stereo unspecified) ?
Ans. 1

###

tested on: Mycobacterium tuberculosis; test: Antibacterial activity against Mycobacterium tuberculosis H37Rv ATCC 27294T assessed as amikacin MIC at 2 ug/ml after 7 days by microdilution checkerboard assay; assay type: functional; settings: 168 h
experimental.readout: MIC (µg/mL)
Please give a number only; it is taken to be in µg/mL.

Qu. Please look up its MIC: CCSc1nnc(COc2ccccc2C2=NOC(c3ccc(Cl)cc3Cl)C2)n1NC(C)=O (stereo not given)
Ans. 1

Qu. Also CCCSc1nnc(COc2ccccc2C2=NOC(c3ccc(Cl)cc3Cl)C2)n1NC(C)=O (stereo not given) ?
Ans. 0.25

Qu. Also CSc1ccc2c(c1)N(CCC1CCCCN1C)c1ccccc1S2 (stereo not given) ?
Ans. 1

Qu. Also CCCSc1nnc(COc2ccccc2C2=NOC(c3ccc(Cl)cc3Cl)C2)n1NC(=O)CCl (stereo not given) ?
Ans. 1

Qu. Also CCCSc1nnc(COc2ccccc2C2=NOC(c3ccc(Cl)cc3Cl)C2)n1NC(=O)c1ccccc1 (stereo not given) ?
Ans. 2

###

test system: Mycobacterium tuberculosis; test: Antibacterial activity against Mycobacterium tuberculosis H37Rv ATCC 27294T assessed as isoniazid MIC at 8 ug/ml after 7 days by microdilution checkerboard assay; type: functional; conditions: 168 h
Can you tell me MIC for the items I'm about to list?
Please give a number only; it is taken to be in µg/mL.

Qu. Please look up its MIC: CCCSc1nnc(COc2ccccc2C2=NOC(c3ccc(Cl)cc3Cl)C2)n1NC(=O)c1ccccc1 (stereo not given)
Ans. 0.1

Qu. Also CSc1ccc2c(c1)N(CCC1CCCCN1C)c1ccccc1S2 (stereo not given) ?
Ans. 0.00156

Qu. Also CCSc1nnc(COc2ccccc2C2=NOC(c3ccc(Cl)cc3Cl)C2)n1NC(C)=O (stereo not given) ?
Ans. 0.025

Qu. Also CCCSc1nnc(COc2ccccc2C2=NOC(c3ccc(Cl)cc3Cl)C2)n1NC(C)=O (stereo not given) ?
Ans. 0.00078

Qu. Also CCCSc1nnc(COc2ccccc2C2=NOC(c3ccc(Cl)cc3Cl)C2)n1NC(=O)CCl (stereo not given) ?
Ans. 0.1
